Measured values drawn from patent US20260234283A1 for this set.

Molecular target: T1, recombinant cyno SIRPα-His (cynomolgus monkey, UniProt A0A2K5VYQ9 31-372)
T1 chain: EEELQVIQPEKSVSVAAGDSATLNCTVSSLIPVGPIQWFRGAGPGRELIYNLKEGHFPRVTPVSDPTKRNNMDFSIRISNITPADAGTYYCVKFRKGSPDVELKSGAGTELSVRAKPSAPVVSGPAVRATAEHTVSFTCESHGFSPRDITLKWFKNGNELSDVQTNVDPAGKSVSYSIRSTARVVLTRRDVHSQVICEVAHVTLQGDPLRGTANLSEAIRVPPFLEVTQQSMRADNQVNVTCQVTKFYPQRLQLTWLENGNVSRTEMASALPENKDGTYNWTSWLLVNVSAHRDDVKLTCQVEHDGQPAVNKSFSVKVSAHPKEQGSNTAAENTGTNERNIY
Test: Biacore
Property: log10(Kd); scope: individual binders
Measured quantity: log10(Kd) (log10 of the value in nM)

# Binder, Val
rows = [
    ("56.16A1.H11 (antibody, V domains shown) VH: EVQLVESGGGLVQPGRSMKLSCAASGFIFTNYDMAWVRQAPTKGLEWVASISYGGSRIYYRDSVKGRFTISRDDAKSTLYLQMDSLRSEDTATYYCTTDYGYNPSYYWYFDFWGPGTMVTVSS VL: DIQMTQTPSSMPASLGERVTISCRASQGISNYLNWYQQKPDGTIKPLIYYTSNLQSGVPSRFSGSGSGTDYSLTISSLEPEDFAMYYCQQYDSSPYTFGAGTKLELKR", 0.08),
    ("53.21A9.B11 (antibody, V domains shown) VH: QVQLQESGPGLVKPSETLSLTCTVSGGSVSSGRYYWSWIRQPPGKGLEWIGYIYYSGSTNYNPSLKSRVTISVDTSKNQFSLKLTSVTAADTAVYYCARAYDWNYFFDYWGQGTLVTVSS VL: DIVMTQSPLSLPVTPGEPASISCRSSQSLLYSNGYNYLEWYLQKPGQSPQLLIYLGSNRASGVPDRFSGSGSGTDFTLQISRVEAEDVGVYYCMQGLQTPITFGQGTRLEIK", 2.06),
    ("54.8A5.A5 (antibody, V domains shown) VH: EVQLVESGGDLIQPGGSLRLSCAASGFSFSSYDMHWVRQTTGKGLEWVSAIGTAGDTYYPGSVKGRFTISRENAKNSLYLQMNSLRAGDTAVYYCARGGNWDDAFDIWGQGTVVTVSS VL: DIQMTQSPSSLSASVGDRVTITCRASQDINNYLAWFQQKPGRAPKSLIFTASRLQSGVPSKFSGSGSGTDFSLTISSLQPEDFATYYCQQYTFYPYTFGQGTKLEIK", 1.86),
    ("54.58C2.B9.A2 (antibody, V domains shown) VH: EVQLVESGGGLVQPGGSLRLSCAASGFTFSSYDMHWVRQATGKGLEWVSVIGISGDTYYPGSVKGRFTISRENAKNSLYLQMNSLRAGDTAVYYCARGGNWDDAFDIWGQGTMVTVSS VL: DIQMTQSPSSLSASVGDRVTITCRASQDINNYLAWFQQKPGKAPKSLIYTTSSLQSGVPSKFSGSGSGTDFTLTISSLQPEDFATYYCQQYVSYPYTFGQGTKLEIK", 0.42),
    ("54.76D9.B6 (antibody, V domains shown) VH: EVQLVESGGGLVQPGGSLRLSCAASGFTFSSYDMHWVRQATGKGLEWVSVIGISGDTYYPGSVKGRFTISRENAKNSLHLQMNSLRAGDTAVYYCARGGNWDDALDIWGQGTMVTVSS VL: DIQMTQSPSSLSASVGDRVTITCRASQDINNYLAWFQQKPGKAPKSLIYTTSSLQSGVPSKFSGSGSGTDFTLTISSLQPEDFATYYCQQYVSYPYTFGQGTKLEIK", 0.50),
    ("54.69B10.E7 (antibody, V domains shown) VH: EVQLVESGGGLVQPGGSLRLSCAASGFTFSSYDMHWVRQTTGKGLEWVSVIGIAGDTYYAGSVKGRFTISRENAKSSLYLQMNSLRAGDTAVYYCARGGNWDDAFDIWGQGTMVTVSS VL: DIQMTQSPSSLSASVGDRVTITCRASQDINNYLAWFQQKPGKAPKSLIYTTSSLQSGVPSKFSGSGSGTDFTLTISSLQPEDFATYYCQQYVSYPYTFGQGTKLEIK", 0.48),
]
